All values here come from PubChem BioAssay (NCI).

Tested on: SF-539 CNS
ASSAY EXPLANATION: NCI tumour cell line growth inhibition, 48 h
Overview of reported TGI across a group of compounds:

Use the examples below as a reference point.
CS(=O)(=O)c1ccc([C@H]2O[C@@H](CO)C[C@]2(O)c2ccc(S(C)(=O)=O)cc2)cc1 :: > 100 µM
NC(=O)c1ccc(I)c(N)c1 :: > 100 µM

Lab note: next compound to report on.
The compound listed as Cc1cn(C(C)OCCN2C(=O)c3ccccc3C2=O)c(=O)[nH]c1=O (stereo not drawn) shows TGI equal to > 100 µM

====

System: TK-10 renal
ASSAY EXPLANATION: NCI tumour cell line growth inhibition, 48 h
EXPERIMENTAL ENDPOINT: TGI (µM)
Provide the reading as a plain figure in µM.

Observe how each entry below is paired with its result.
COc1ccc2c(c1)CC1=C(O2)c2ccc(OC)cc2OC1 :: 46.3
CN1CCN(C(=O)OCc2nc3c(N4CCOCC4)nc(Cl)nc3n2C)CC1 :: 3.05

// switching to the query molecule
Form field TGI, entry O=C1Nc2c(C(F)(F)F)cccc2[C@]1(c1ccc(O)cc1)c1ccc(OC(F)(F)F)cc1 : 25.3
